# ASSAY_TARGET: UniProtKB Q9UEW8
# ASSAY_EXPLANATION: KINOMEscan competition binding
# TEST_CONTEXT: compound 10.0 µM
PARAMETER: kinase still bound, per cent of control (%)
Entry rule: numbers only, all in %.

Supply recorded kinase still bound, per cent of control for N#Cc1c(NC(=O)c2cccc3ccccc23)sc2c1CCCC2 here. 100

In one line, give reported kinase still bound, per cent of control of the entry CN(C)C/C=C/C(=O)Nc1cccc(Nc2ncc3c(n2)N(C)c2ccccc2C(=O)N3C)c1 . 100

Consider the compound Cc1ccc(NC(=O)c2cccc(C(C)(C)C#N)c2)cc1Nc1ccc2ncn(C)c(=O)c2c1 and give its recorded kinase still bound, per cent of control. 100

State its kinase still bound, per cent of control: Nc1ccc(-c2ccc3ncc4ccc(=O)n(-c5cccc(C(F)(F)F)c5)c4c3c2)cn1 100

---

# ASSAY_TARGET: MARK4 (human) (UniProt Q96L34)
# Sequence (Q96L34 whole entry, looked up): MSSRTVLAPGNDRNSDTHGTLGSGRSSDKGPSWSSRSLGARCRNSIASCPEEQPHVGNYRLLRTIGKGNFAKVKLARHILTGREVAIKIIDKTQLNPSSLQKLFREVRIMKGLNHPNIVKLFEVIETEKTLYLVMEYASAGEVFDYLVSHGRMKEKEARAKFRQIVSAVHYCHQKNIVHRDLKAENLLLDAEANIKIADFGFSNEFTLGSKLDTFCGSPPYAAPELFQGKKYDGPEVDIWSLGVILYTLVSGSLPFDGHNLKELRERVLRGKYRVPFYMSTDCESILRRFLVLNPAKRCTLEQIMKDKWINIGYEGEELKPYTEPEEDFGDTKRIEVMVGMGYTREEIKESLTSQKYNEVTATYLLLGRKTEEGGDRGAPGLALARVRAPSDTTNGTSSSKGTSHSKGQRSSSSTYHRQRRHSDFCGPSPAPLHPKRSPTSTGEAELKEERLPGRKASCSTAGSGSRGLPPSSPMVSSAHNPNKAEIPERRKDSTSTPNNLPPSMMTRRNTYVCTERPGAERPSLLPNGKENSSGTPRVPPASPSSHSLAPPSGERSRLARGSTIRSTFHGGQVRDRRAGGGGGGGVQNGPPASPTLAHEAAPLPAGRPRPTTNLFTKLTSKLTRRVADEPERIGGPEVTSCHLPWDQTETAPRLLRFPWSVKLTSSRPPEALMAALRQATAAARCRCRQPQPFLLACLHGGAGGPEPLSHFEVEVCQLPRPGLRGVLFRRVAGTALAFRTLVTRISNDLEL
# ASSAY_EXPLANATION: KINOMEscan competition binding
# TEST_CONTEXT: compound 10.0 µM
PARAMETER: kinase still bound, per cent of control (%)
Give the value, in units of %, as a plain number.

Report kinase still bound, per cent of control for CCC(=O)N1CCN(c2ccc(-n3c(=O)ccc4cnc5ccc(-c6cnc7ccccc7c6)cc5c43)cc2C(F)(F)F)CC1 100

# return recorded kinase still bound, per cent of control for entry Cc1ccc(C(=O)Nc2cccc(C(F)(F)F)c2)cc1Nc1cncc(C(N)=O)c1 100

Give a short answer stating reported kinase still bound, per cent of control for O=C(NOC[C@H](O)CO)c1ccc(F)c(F)c1Nc1ccc(I)cc1F . 100

Identify kinase still bound, per cent of control associated with the compound C=CC(=O)Nc1cc(NC(=O)c2ccc(C)c(NC(=O)c3ccno3)c2)cc(C(F)(F)F)c1 100

Give the reported kinase still bound, per cent of control for this compound. CC[C@@H]1C(=O)N(C)c2cnc(Nc3ccc(C(=O)NC4CCN(C)CC4)cc3OC)nc2N1C1CCCC1 100

Tell me its kinase still bound, per cent of control given C=CC(=O)Nc1cccc(Oc2nc(Nc3ccc(N4CCN(C)CC4)cc3OC)ncc2Cl)c1 as the entry. 16

Please report the measured kinase still bound, per cent of control for Nc1ccc(-c2ccc3ncc4ccc(=O)n(-c5cccc(C(F)(F)F)c5)c4c3c2)cn1 100

Provide one value: measured kinase still bound, per cent of control of O=C(NC1CC1)c1cccc(-c2ccc3c(NC(=O)C4CC4)n[nH]c3c2)c1 96

---

I'd appreciate it if you could supply kinase still bound, per cent of control values for the items below.
# ASSAY_TARGET: AKT2 (human) (UniProt P31751)
# Sequence (P31751 whole entry, looked up): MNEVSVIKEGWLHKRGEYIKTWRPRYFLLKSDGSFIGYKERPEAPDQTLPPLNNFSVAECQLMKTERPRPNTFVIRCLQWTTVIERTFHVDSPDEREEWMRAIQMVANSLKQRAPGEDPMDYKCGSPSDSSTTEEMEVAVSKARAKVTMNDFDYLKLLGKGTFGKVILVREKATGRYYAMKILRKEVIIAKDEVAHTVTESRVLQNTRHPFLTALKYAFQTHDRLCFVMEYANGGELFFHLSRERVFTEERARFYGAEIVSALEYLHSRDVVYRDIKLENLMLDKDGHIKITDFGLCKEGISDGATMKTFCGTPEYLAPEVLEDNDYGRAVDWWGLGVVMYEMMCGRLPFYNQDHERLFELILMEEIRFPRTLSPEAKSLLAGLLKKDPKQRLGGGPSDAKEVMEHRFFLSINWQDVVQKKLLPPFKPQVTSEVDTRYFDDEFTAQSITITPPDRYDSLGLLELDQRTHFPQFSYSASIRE
# ASSAY_EXPLANATION: KINOMEscan competition binding
# TEST_CONTEXT: compound 10.0 µM
Include the unit after the number when you answer.

// Input: Cc1ccc2nc(NCCN)c3ncc(C)n3c2c1 . Output its kinase still bound, per cent of control only. 100%

For Cc1ccc(NC(=O)c2cccc(C(C)(C)C#N)c2)cc1Nc1ccc2ncn(C)c(=O)c2c1 , write its kinase still bound, per cent of control. 100%

Tell us which kinase still bound, per cent of control value is on record for O=C1Nc2ccc(I)cc2/C1=C/c1cc(Br)c(O)c(Br)c1 90%

Provide one value: measured kinase still bound, per cent of control of COc1cc(N2CCN(C)CC2)ccc1Nc1nc(N)c(C(=O)c2c(Cl)cccc2Cl)s1 100%

Give the reported kinase still bound, per cent of control for this compound. C[C@@H](Oc1cc(-n2cnc3ccc(CN4CCN(C)CC4)cc32)sc1C(N)=O)c1ccccc1C(F)(F)F 100%

Output kinase still bound, per cent of control of O=C(NC1CC1)c1cccc(-c2ccc3c(NC(=O)C4CC4)n[nH]c3c2)c1 91%

---

# ASSAY_TARGET: CAMK2G (human) (UniProt Q13555)
# Sequence (Q13555 whole entry, looked up): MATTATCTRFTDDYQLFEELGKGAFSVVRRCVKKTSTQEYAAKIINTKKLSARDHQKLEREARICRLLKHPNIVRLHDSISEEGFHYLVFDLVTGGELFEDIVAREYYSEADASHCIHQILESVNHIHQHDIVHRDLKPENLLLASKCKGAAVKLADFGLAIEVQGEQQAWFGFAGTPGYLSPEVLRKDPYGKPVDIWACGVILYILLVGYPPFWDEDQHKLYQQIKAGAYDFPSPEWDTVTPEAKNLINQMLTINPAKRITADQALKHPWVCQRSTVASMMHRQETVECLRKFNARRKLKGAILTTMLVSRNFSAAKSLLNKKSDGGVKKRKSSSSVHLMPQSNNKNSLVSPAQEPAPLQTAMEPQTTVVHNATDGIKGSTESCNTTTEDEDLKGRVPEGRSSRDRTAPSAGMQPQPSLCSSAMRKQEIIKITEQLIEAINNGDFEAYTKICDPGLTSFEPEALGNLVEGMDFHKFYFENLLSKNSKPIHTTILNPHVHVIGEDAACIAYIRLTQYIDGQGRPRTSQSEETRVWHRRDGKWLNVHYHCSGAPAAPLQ
# ASSAY_EXPLANATION: KINOMEscan competition binding
# TEST_CONTEXT: compound 10.0 µM
Answer each item with its documented kinase still bound, per cent of control.
Enter your answer as a number in %; do not include the unit.

Indicate its recorded kinase still bound, per cent of control; the compound in question is O=C(NC1CC1)c1cccc(-c2ccc3c(NC(=O)C4CC4)n[nH]c3c2)c1 89

Given COc1cc(C(=O)NC2CCN(C)CC2)ccc1Nc1ncc2c(n1)N(C1CCCC1)C(C)CC(=O)N2C (stereo not drawn) , respond with its kinase still bound, per cent of control. 34

Kindly indicate its recorded kinase still bound, per cent of control. Item: Cn1c(=O)n(-c2ccc(C(C)(C)C#N)cc2)c2c3cc(-c4cnc5ccccc5c4)ccc3ncc21 100

---

# ASSAY_TARGET: YES1 (human) (UniProt P07947)
# Sequence (P07947 whole entry, looked up): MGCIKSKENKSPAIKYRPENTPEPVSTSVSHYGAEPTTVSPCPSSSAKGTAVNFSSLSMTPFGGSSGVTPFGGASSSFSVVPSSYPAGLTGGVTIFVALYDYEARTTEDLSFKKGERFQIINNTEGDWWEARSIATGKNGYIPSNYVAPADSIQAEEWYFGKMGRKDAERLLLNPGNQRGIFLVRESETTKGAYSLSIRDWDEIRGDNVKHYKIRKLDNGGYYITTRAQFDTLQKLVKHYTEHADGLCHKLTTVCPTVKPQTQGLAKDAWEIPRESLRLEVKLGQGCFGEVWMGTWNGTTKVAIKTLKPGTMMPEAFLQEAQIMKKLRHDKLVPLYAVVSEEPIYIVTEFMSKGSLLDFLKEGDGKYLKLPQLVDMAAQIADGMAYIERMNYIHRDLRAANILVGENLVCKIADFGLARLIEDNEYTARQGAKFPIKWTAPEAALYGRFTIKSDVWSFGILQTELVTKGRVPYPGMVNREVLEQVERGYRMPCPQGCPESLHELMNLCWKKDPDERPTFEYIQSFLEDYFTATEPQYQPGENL
# ASSAY_EXPLANATION: KINOMEscan competition binding
# TEST_CONTEXT: compound 10.0 µM
PARAMETER: kinase still bound, per cent of control (%)
Reply numerically in %, unit not repeated.

State measured kinase still bound, per cent of control of the compound OCCCNc1cc(-c2ccnc(Nc3cccc(Cl)c3)n2)ccn1 with YES1 (human) (UniProt P07947). 100

Provide measured kinase still bound, per cent of control on YES1 (human) (UniProt P07947) for C=CC(=O)Nc1cccc(Nc2nc(N[C@H]3CC[C@H](N(C)C)CC3)nc3c2ncn3C(C)C)c1 please. 23

Answer briefly: kinase still bound, per cent of control recorded on YES1 (human) (UniProt P07947) for Cc1ccc(NC(=O)c2cccc(C(C)(C)C#N)c2)cc1Nc1ccc2ncn(C)c(=O)c2c1 4.6

Send back YES1 (human) (UniProt P07947) kinase still bound, per cent of control of CN(C)C/C=C/C(=O)Nc1cccc(Nc2ncc3c(n2)N(C)c2ccccc2C(=O)N3C)c1 only. 13

Please report the measured kinase still bound, per cent of control for Cn1c(=O)n(-c2ccc(C(C)(C)C#N)cc2)c2c3cc(-c4cnc5ccccc5c4)ccc3ncc21 tested on YES1 (human) (UniProt P07947). 100

Give reported kinase still bound, per cent of control for Nc1ccc(-c2ccc3ncc4ccc(=O)n(-c5cccc(C(F)(F)F)c5)c4c3c2)cn1 (YES1 (human) (UniProt P07947)) 100

Answer briefly: kinase still bound, per cent of control recorded on YES1 (human) (UniProt P07947) for CCC(=O)N1CCN(c2ccc(-n3c(=O)ccc4cnc5ccc(-c6cnc7ccccc7c6)cc5c43)cc2C(F)(F)F)CC1 74

Answer briefly: kinase still bound, per cent of control recorded on YES1 (human) (UniProt P07947) for COc1cc(C(=O)NC2CCN(C)CC2)ccc1Nc1ncc2c(n1)N(C1CCCC1)CCC(=O)N2C(C)C 100

Under YES1 (human) (UniProt P07947), report kinase still bound, per cent of control for O=C(NOC[C@H](O)CO)c1ccc(F)c(F)c1Nc1ccc(I)cc1F 73

Report value only: kinase still bound, per cent of control, YES1 (human) (UniProt P07947), CCN1CCN(Cc2ccc(Nc3ncc4c(n3)N(C)c3ccccc3C(=O)N4C)cc2C(F)(F)F)CC1 6.6

State the measured kinase still bound, per cent of control (YES1 (human) (UniProt P07947)) of COc1cc(C(=O)NC2CCN(C)CC2)ccc1Nc1ncc2c(n1)N(C1CCCC1)C(C)CC(=O)N2C (stereo not given) 100

Report kinase still bound, per cent of control under test system YES1 (human) (UniProt P07947) for C=CC(=O)Nc1cc(NC(=O)c2ccc(C)c(NC(=O)c3ccno3)c2)cc(C(F)(F)F)c1 . 46

Report value: kinase still bound, per cent of control, system: YES1 (human) (UniProt P07947), compound: O=C(O)c1ccc(Nc2ncc3c(n2)-c2ccc(Cl)cc2C(c2c(F)cccc2F)=NC3)cc1 3.9

Provide the reported kinase still bound, per cent of control (system: YES1 (human) (UniProt P07947)) for CCCS(=O)(=O)Nc1ccc(F)c(C(=O)c2c[nH]c3ncc(-c4ccc(Cl)cc4)cc23)c1F 18

Tell me its kinase still bound, per cent of control on YES1 (human) (UniProt P07947): O=C1Nc2ccc(I)cc2/C1=C/c1cc(Br)c(O)c(Br)c1 90

---

Please go through the items and note down their kinase still bound, per cent of control.
# ASSAY_TARGET: IKBKB (human) (UniProt O14920)
# Sequence (O14920 whole entry, looked up): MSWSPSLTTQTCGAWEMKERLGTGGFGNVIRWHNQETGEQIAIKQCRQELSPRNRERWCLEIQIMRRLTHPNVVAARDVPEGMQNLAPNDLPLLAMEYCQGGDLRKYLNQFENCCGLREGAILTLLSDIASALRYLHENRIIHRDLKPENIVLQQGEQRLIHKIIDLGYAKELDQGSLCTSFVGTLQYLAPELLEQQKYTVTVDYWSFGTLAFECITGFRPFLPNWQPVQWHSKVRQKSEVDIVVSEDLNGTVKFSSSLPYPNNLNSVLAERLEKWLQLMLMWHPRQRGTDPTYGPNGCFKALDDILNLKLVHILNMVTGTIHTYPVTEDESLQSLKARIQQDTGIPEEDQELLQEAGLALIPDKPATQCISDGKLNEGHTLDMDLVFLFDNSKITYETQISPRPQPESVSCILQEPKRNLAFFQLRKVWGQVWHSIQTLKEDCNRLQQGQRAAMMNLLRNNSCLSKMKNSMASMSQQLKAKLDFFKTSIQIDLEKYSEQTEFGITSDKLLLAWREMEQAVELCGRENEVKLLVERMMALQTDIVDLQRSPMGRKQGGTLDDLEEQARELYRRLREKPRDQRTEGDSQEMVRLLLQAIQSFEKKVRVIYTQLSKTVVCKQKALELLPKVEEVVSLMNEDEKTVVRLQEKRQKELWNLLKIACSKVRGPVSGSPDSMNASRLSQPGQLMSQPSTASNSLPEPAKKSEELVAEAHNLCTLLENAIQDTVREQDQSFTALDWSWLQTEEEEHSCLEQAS
# ASSAY_EXPLANATION: KINOMEscan competition binding
# TEST_CONTEXT: compound 10.0 µM

GET kinase still bound, per cent of control | system: IKBKB (human) (UniProt O14920) | item: CCN1CCN(Cc2ccc(Nc3ncc4c(n3)N(C)c3ccccc3C(=O)N4C)cc2C(F)(F)F)CC1 100%

Please report kinase still bound, per cent of control with IKBKB (human) (UniProt O14920) for item CCOc1cc2ncc(C#N)c(Nc3ccc(OCc4ccccn4)c(Cl)c3)c2cc1NC(=O)/C=C/CN(C)C . 100%

Report the value of kinase still bound, per cent of control obtained on IKBKB (human) (UniProt O14920) for COc1cc(C(=O)NC2CCN(C)CC2)ccc1Nc1ncc2c(n1)N(C1CCCC1)C(C)CC(=O)N2C (stereo not drawn) . 100%

Report the value of kinase still bound, per cent of control obtained on IKBKB (human) (UniProt O14920) for Cc1ccc(NC(=O)c2cccc(C(C)(C)C#N)c2)cc1Nc1ccc2ncn(C)c(=O)c2c1 . 94%

Find kinase still bound, per cent of control for COc1cc(C(=O)NC2CCN(C)CC2)ccc1Nc1ncc2c(n1)N(C1CCCC1)CCC(=O)N2C(C)C on IKBKB (human) (UniProt O14920) and write it down. 100%

State, for IKBKB (human) (UniProt O14920), measured kinase still bound, per cent of control of the compound listed here: N#Cc1c(NC(=O)c2cccc3ccccc23)sc2c1CCCC2 72%

# assay system IKBKB (human) (UniProt O14920): give kinase still bound, per cent of control of OCCCNc1cc(-c2ccnc(Nc3cccc(Cl)c3)n2)ccn1 100%

Recall the reported kinase still bound, per cent of control of CCCS(=O)(=O)Nc1ccc(F)c(C(=O)c2c[nH]c3ncc(-c4ccc(Cl)cc4)cc23)c1F on IKBKB (human) (UniProt O14920) and write it down. 100%
